Experiment: in situ single-pass intestinal perfusion with simultaneous luminal perfusate and mesenteric blood sampling
Assay type: in vivo, Sprague–Dawley rats
Settings: Sprague-Dawley, pH 7; rat ileum, disappearance from lumen; OLC 0.1 mg/mL, LEV 3 mg/mL; flow 1 mL/min; mean ± SD, n = 4; normalised to 10-cm segment; read-out: Peff (effective permeability coefficient)

{"columns": ["Compound", "Peff at 60 min [×10⁻⁶ cm/s]"],
 "data": [
  ["C/C=C(/C=O)[C@@H](CC=O)CC(=O)OCCc1ccc(O)cc1 [OLC, oleocanthal]", 22.3]
]}

====

Experiment: in situ single-pass intestinal perfusion with simultaneous luminal perfusate and mesenteric blood sampling
Assay type: in vivo, Sprague–Dawley rats
Conditions: Sprague-Dawley, rat, pH 7, rat ileum, appearance in mesenteric blood; OLC 0.1 mg/mL, LEV 3 mg/mL; mean ± SD, n = 4; normalised to 10-cm segment; read-out: Papp (apparent permeability coefficient)
Endpoint label: Papp at 60 min (×10⁻⁶ cm/s)

{"columns": ["Compound smiles", "Endpoint label", "Observed result"],
 "data": [
  ["C/C=C(/C=O)[C@@H](CC=O)CC(=O)OCCc1ccc(O)cc1", "Papp at 60 min", 4.12]
]}
